# Tested on: SK-MEL-5 melanoma
# protocol: NCI tumour cell line growth inhibition, 48 h
readout_kind: TGI (µM)
Answers are plain numbers, in µM.

Worked examples follow.
- molecule: "CC(C)C[C@H](NC(=O)CCn1ccc2ncccc2c1=O)B(O)O"
  system_tested: "SK-MEL-5 melanoma"
  unit_label: "µM"
  TGI: 19.2
- molecule: "C=C1CCCC2[C@](C)(CC3=C(O)C(=O)C=C(OC)C3=O)[C@@H](C)CC[C@]12C (stereo not given in full)"
  system_tested: "SK-MEL-5 melanoma"
  unit_label: "µM"
  TGI: 9.35
- molecule: "CC(C)(C)OC(=O)N1[C@@H]2Cc3ccc(N)cc3[C@@]1(C)c1ccccc12"
  system_tested: "SK-MEL-5 melanoma"
  unit_label: "µM"
  TGI: 12.4
- molecule: "Cc1c2ccccc2c(C)n2c1nc1ccccc12"
  system_tested: "SK-MEL-5 melanoma"
  unit_label: "µM"
  TGI: 16
- molecule: "COc1ccc2c(c1)c1nn(CCN3CCCCC3)c3ccc4c(=O)n(CCN(C)C)c(=O)n2c4c13"
  system_tested: "SK-MEL-5 melanoma"
  unit_label: "µM"
  TGI: 0.283

Quick one: give me TGI for each item below, same order please.
1. FC(F)(F)c1cccc2c(SCCc3n[nH]c(=S)o3)ccnc12
2. O=[N+]([O-])c1ccc(N2N=C(c3ccc4ccccc4c3O)CC2c2ccc(Cl)cc2)c([N+](=O)[O-])c1 (stereo not given)

Response:
[44.1, 63.3]

---

I'd be grateful if you could share measured TGI for these entries.
# System: SR leukemia
# protocol: NCI tumour cell line growth inhibition, 48 h
Give bare numbers, in µM.

For every item below, please supply its TGI.
1. O=S(=O)(NC1=NCCN1C(=S)SN1CCn2c1nsc2=S)c1ccccc1Cl
2. COc1cc2c3c(n(CCCBr)c(=O)c2cc1OC)-c1ccc(F)cc1C3=O
3. COc1c(C)c(C/C=C(\C)CC/C=C(\C)CC/C=C(\C)CCC=C(C)C)c(OC)c2ccccc12

Response:
1: 3.31; 2: 1.73; 3: 90.6

---

# System: 786-0 renal
# protocol: NCI tumour cell line growth inhibition, 48 h
readout_kind: GI50

- molecule: "CC(C)C(=O)[O-].CC(C)C(=O)[O-].N.N.N.N.[Co+3].[O-][Cl+3]([O-])([O-])[O-]"
  GI50: "> 100 µM"

// for each molecule below, give its GI50
1. O=S(=O)(NC1=NCCN1C(=S)SN1CCn2c1nsc2=S)c1ccccc1Cl
2. C=C(CNC(=O)c1ccccc1)c1ccc(C(=O)Nc2ccccc2N)cc1

Response:
16.7 µM
7.55 µM

Items follow; give GI50 for each.
1. N#C/C(=C\c1c(-c2ccccc2)[nH]c2ccccc12)C(=O)c1ccccc1
2. Clc1ccc(CNc2nccc(-c3cnn4ncccc34)n2)cc1

Response:
16.5 µM
9.19 µM

I have 8 molecules here; please give me GI50 for each one.
1. C[C@@H](COCCC(=O)N1CCN(c2ncc(C(F)(F)F)cn2)CC1)Nc1cn[nH]c(=O)c1C(F)(F)F
2. COc1ccc(-c2ccc(-c3ccc(C(=N)N)cn3)o2)cc1Cl
3. COc1ccc2c(c1)c(-c1ccc(-c3cn(C)c4ccc(OC)cc34)[nH]1)cn2C
4. Nc1nccc2c1ncn2C1OC(CO)C(O)C1O (stereo not drawn)
5. O=C(CCSc1ccnc2c(C(F)(F)F)cccc12)N/N=C/c1cc(Cl)c(Cl)cc1Cl
6. CC(C)C[C@H](NC(=O)CCn1ccc2ncccc2c1=O)B(O)O
7. O=c1oc2c3ccc4cnccc4c3[nH]c2c2ccccc12
8. O=C(COc1cccc(/C=C2\Oc3ccc4ccccc4c3C2=O)c1)c1ccc(Cl)cc1

Response:
["59.1 µM", "1.86 µM", "12.2 µM", "> 100 µM", "20.3 µM", "14 µM", "4.47 µM", "4.54 µM"]
